# tested_target: UniProt P10276
# protocol_notes: Agonist activity at RARalpha (unknown origin) expressed in HEK293 cells assessed as transcriptional activation after 48 hrs by luciferase reporter gene assay
# Assay type: cell-based
Here, each record is paired with measured pEC50 data.
Interpret pEC50 as the negative base-10 log of the concentration measured in mol/L.

Recorded pEC50, per entry:
>>> observed("C=CC(C)(C)c1c(O)cc2oc3c(O)c4c(cc3c(=O)c2c1O)C=CC(C)(C)O4")
5.77
>>> observed("CC1(C)C=Cc2c(cc(O)c3c(=O)c4c5c(ccc4oc23)OC(C(C)(C)O)C5)O1 (centres undefined)")
7.19
>>> observed("CC(C)=CCc1c(O)ccc2oc3c4c(cc(O)c3c(=O)c12)OC(C)(C)C=C4")
6.96

Which pEC50 value belongs to CC1Oc2cc3oc4c(O)c5c(cc4c(=O)c3c(O)c2C1(C)C)C=CC(C)(C)O5 (centres undefined) ?
6.77

====

# tested_target: Retinoic acid receptor alpha (Homo sapiens, UniProt P10276)
# Sequence (P10276 whole entry): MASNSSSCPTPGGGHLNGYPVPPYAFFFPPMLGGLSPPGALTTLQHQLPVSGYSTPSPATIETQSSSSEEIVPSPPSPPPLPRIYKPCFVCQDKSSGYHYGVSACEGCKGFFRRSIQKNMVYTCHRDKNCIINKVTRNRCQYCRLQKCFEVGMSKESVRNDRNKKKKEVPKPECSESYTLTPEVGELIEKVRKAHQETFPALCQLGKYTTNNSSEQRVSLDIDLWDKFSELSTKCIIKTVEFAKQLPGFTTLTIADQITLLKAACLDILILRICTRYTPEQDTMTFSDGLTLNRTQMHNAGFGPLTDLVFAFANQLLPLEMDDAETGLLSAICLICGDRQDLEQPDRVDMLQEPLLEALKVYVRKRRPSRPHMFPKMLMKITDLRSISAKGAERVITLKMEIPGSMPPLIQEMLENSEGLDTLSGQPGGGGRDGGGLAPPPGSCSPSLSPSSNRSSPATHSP
# protocol_notes: Agonist activity at RARalpha (unknown origin) expressed in HEK293 cells assessed as transcriptional activation after 48 hrs by luciferase reporter gene assay in presence of bexarotene
# Type: cell-based
metric: EC50 (nM)
# output: bare number, implied unit nM

Recorded EC50, per entry:
>>> observed("C=CC(C)(C)c1c(O)cc2oc3c(O)c4c(cc3c(=O)c2c1O)C=CC(C)(C)O4")
2000
>>> observed("CC1(C)C=Cc2c(cc(O)c3c(=O)c4c5c(ccc4oc23)OC(C(C)(C)O)C5)O1 (centres undefined)")
170
>>> observed("CC(C)=CCc1c(O)ccc2oc3c4c(cc(O)c3c(=O)c12)OC(C)(C)C=C4")
200

Retinoic acid receptor alpha (Homo sapiens, UniProt P10276) / EC50 / CC1Oc2cc3oc4c(O)c5c(cc4c(=O)c3c(O)c2C1(C)C)C=CC(C)(C)O5 (centres undefined) : value?
200
